experimentSummary: soluble on expression in E. coli; label from the status in PepcDB or PDB records
propertyMeasured: soluble on expression in E. coli

# sequenceContent, soluble on expression in E. coli
measured = [
    ("KRVFGFVSAKGGDGGSCIAANFAFALSQEPDIHVLAVDISLPFGDLDMYLSGNTHSQDLADISNASDRLDKSLLDTMVQHISPSLDLIPSPATFEKIVNIEPERVSDLIHIAASFYDYIIVDFGASIDHVGVWVLEHLDELCIVTTPSLQSLRRAGQLLKLCKEFEKPISRIEIILNRADTNSRITSDEIEKVIGRPISKRIPQDEDAMQESLLSGQSVLKVAPKSQLSKTIVDWALHLNGVSRPNKRSIWERLKIK", "soluble"),
    ("MPAFDKPKVELHVHLDGSIKPETILYYGRRRGIALPANTAEGLLNVIGMDKPLTLPDFLAKFDYYMPAIAGCREAIKRIAYEFVEMKAKEGVVYVEVRYSPHLLANSKVEPIPWNQAEGDLTPDEVVALVGQGLQEGERDFGVKARSILCCMRHQPNWSPKVVELCKKYQQQTVVAIDLAGDETIPGSSLLPGHVQAYQEAVKSGIHRTVHAGEVGSAEVVKEAVDILKTERLGHGYHTLEDQALYNRLRQENMHFEICPWSSYLTGAWKPDTEHAVIRLKNDQANYSLNTDDPLIFKSTLDTDYQMTKRDMGFTEEEFKRLNINAAKSSFLPEDEKRELLDLLYKAYGMPPSASAGQNLAENLYFQ", "soluble"),
    ("WSGVMEWQEPRPEPNSRSKRWLPSHVYVNQGEILRTEQWPRKLYMQLIPQQLLTTLVPLFRNSRLVQFHFTKDLETLKSLCRIMDNGFAGCVHFSYKASCEIRVLMLLYSSEKKIFIGLIPHDQGNFVNGIRRVIANQQQVLQRNLEQEQQQRGMGG", "not soluble"),
    ("MGSDKIHHHHHHLEISLNEIIDYYAKADVSFVGAFGERVSPQLKVLDRHTNPAGGGLVIPFSGSACFTFDGKPYVIEPGMVVHAGPGMRLSKEVIGDREWEYAVIHYHIPQHERDEYPLFHKDFSLAHGRSAKVPHLVRQILDIQSIPGAAAKFQTKVLFLSLLQEIFTAACGQPGQENSKLIEEAMGYIRLNYADELTVQKVADEFSVERRQFSYLFKRHTGMSPIHYLIECRISKAKELLGSPGCSVKQVAEWVGYTDSLYFSKAFKKYTGVSPSEYREGFAL", "not soluble"),
    ("GMAEPKFTSFTTADFINDVDMELFIDAVEKTAPVWVKEMKSRGLLKFSMNRVWNKGEVFRVVMTYEYKDRASFEANIAYLEDTFGKNPVFLQLVTTAKFTTSRCLVVMEV", "soluble"),
    ("MGSDKIHHHHHHMRIGVAGVGKLGEFHTNLLKQIAAEASDVEFSGVFDLNPERLQEIGKKYGVACFSTLEELAASCDAAVIATTTSSHYAIARQLLEARLHLFIEKPITATLEEADKLIRIEQEKGLTIQVGHIERFNPALLAVEPYIGEPMYIQAERLSGFSRRVTDVSVVLDLMIHDIDLVLSLIKSDIRSIAASGVKVFSNELDMATARIEFENGAIANVTASRLSRSKLRKMRFFTRNPKSYASLDFTSGKSEVFRLVPPDQLSSKNPIKNFATKKILEQFGEIQESLKEMALDYVSPDVPKINALKEELEQFIDAIRKGKPAKVTSEEGRRALMVAGKITDEIRNNTADLD", "not soluble"),
]

Prompt: Returns the measured soluble on expression in E. coli for the input sequence. Input: MSSIEWNEKTFAKFAYLSDPRTKGELVAYVLTKANLKDNKYENTIVIENLKNNARRFIENATMPRISPDGKKIAFMRANEEKKVSEIWVADLETLSSKKILEAKNIRSLEWNEDSRKLLIVGFKRREDEDFIFEDDVPAWFDDLGFFDGEKTTFWIFDTESEEVIEEFEKPRFSSGIWHRDKIVVNVPHREIIPQYFKFWDIYIWEDGKEEKMFEKVSFYAVDSDGERILLYGKPEKKYMSEHNKLYIYDGKEVMGILDEVDRGVGQAKIKDGKVYFTLFEEGSVNLYIWDGEIKPIAKGRHWIMGFDVDEIVVYLKETATRLRELFTWDGEEKQLTDYNDPIFAKL
Response: soluble

Prompt: Returns the measured soluble on expression in E. coli for the input sequence. Input: MGSDKIHHHHHHMGACENRWTVAKALRFPGDALQTILVAAPRGDLSTFFSIECTKRVHTGRCVTTANALKVQAFHTTDVTEQVRATPGWQQQYRQMSPGYFSGELRCLGLDGVEVYEERLNTRVEQFFRAPSGSLAFCFDRSENSLYLLNEQSRNIWITPENYQEVAVVFDQAFLARHGLDPQRLEGLFMVPLGSGQNALFGSWLSATLTRLGEEGCPLQGQALAEQLLEDCLFILDNASQRLQGVALGRRDEERAIMHRVSEWAADCPEETLNLLELADVAGVSLRQLQQAFKAFTGMPPAHWLRLRRLNGARRDLLRGGGVTVAEVAMRWSFWHLGRFSESYRQLFKEFPSETLKRCRV
Response: not soluble

Prompt: Returns the measured soluble on expression in E. coli for the input sequence. Input: MNLLVIGGHERMEKDYMVMAKKKGYKTKVYTTMSSKLNNSIGRPDAVVILTSTVSHKMSRTVESQAKKQDILIVRHKNSLEHHHHHH
Response: soluble

Prompt: Returns the measured soluble on expression in E. coli for the input sequence. Input: MGSDKIHHHHHHMKRGLNLDQWVTWPGEDQWGDAKTILPYPEWRKFLGDDDLRALKGAGFDFLRMPVDPSPFLSDQTAALRDDLYASVLDSVRMINRAGLKVIVDMHLIPAGGSRKIGMAQVMDDPRTFDRYLDMVRKMARTLAGEDPEKVAFEPMNEPIVDCDSDGTSLWPDRQRELFAAARSSATKLTLVLTGACYSAASSLEKIDPKAISDDNVIWTFHSYDPFLLTHQGATWAGDFIPYVTGLPYPLNAVPKAQLDATLDIIRARIKAEAPWTRQSGLLAYLDEQVASMDSPDKLLGLMDAPFKKVEAWAKANGVKPENITLGEFGMIRQEYGNAYVMPAQYRAAYVRDMIARAEAHGFSWSVWSYGGAFGIVDAFNGDKGEPDVMDVIRSLH
Response: not soluble

Prompt: Returns the measured soluble on expression in E. coli for the input sequence. Input: MGTIADIVVTEQNAERFWIVVHRDGAPSLRLTVDQDVLLQFRLKKGMEISDDLLQHIVYADEVKKAYQQALYFLAHRMRSEHEVAAHLRKKGAPDSVIDEVLKKLRAERYVDDEAFAAAYVRTQKKTAAKGPLLIRAELERLGVLGCLIEQSLAEYTLDEQMAIARSLYEKAKKQRLAESARAFLERVRQQLMRKGFPHEVIAAVLADGGAHTEQEEREALSVQAEKAHRRYAHHPRPLYEQKMRQALYRKGFALDLINEWLRMHGNDE
Response: not soluble
